Molecular target: KCNQ2/3 channels (Homo sapiens, UniProt O43525+O43526)
Construct: expressed in transfected cells
Sequence (O43526 whole entry): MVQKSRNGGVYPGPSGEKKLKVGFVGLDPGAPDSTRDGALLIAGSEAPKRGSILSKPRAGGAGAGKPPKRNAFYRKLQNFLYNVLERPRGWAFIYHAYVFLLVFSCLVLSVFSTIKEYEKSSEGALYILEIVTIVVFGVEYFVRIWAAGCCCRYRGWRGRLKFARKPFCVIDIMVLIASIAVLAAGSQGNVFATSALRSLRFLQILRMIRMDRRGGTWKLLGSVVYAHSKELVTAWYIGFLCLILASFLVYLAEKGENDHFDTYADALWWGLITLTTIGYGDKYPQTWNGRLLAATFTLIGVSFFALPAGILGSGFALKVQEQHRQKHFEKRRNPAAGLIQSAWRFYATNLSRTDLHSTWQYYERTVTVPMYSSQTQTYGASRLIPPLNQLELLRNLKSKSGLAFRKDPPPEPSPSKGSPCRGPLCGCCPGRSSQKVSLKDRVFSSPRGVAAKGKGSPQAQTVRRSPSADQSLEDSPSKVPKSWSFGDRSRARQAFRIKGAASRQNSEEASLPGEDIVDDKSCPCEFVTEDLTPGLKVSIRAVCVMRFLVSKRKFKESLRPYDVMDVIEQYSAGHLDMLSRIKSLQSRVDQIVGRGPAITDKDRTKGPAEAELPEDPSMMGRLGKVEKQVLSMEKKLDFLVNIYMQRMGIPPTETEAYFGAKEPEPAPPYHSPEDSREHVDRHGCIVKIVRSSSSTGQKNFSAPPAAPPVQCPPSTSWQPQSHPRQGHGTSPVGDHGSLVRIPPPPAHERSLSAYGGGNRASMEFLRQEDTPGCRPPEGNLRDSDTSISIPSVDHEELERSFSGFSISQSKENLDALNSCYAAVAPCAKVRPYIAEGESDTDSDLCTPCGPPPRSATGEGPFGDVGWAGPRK
Sequence (O43525 whole entry): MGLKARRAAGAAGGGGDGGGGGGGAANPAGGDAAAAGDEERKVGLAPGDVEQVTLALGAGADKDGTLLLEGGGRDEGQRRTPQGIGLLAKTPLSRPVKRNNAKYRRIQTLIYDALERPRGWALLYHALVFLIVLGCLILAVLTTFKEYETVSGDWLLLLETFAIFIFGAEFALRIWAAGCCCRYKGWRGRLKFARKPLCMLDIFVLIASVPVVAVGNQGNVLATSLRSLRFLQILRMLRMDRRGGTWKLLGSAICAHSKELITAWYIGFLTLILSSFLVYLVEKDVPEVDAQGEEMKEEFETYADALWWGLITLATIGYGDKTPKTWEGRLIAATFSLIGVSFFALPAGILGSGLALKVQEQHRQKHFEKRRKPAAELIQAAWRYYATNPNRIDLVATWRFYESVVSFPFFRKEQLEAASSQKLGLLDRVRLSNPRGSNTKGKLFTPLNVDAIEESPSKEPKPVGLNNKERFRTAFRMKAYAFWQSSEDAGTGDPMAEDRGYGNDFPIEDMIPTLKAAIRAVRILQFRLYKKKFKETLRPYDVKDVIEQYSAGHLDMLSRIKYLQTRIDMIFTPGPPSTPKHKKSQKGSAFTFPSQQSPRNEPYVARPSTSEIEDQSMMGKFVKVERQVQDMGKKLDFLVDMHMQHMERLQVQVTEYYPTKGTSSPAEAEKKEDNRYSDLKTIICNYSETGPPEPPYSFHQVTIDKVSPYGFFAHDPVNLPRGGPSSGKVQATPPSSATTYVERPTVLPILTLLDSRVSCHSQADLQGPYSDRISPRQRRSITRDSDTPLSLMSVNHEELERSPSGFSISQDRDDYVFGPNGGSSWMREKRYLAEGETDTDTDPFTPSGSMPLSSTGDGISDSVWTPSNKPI
Test: Fluorescence assay using a voltage sensitive dye (fluorimetry)
Format: cell-based
Details: CHO-K1 cells expressing KCNQ2/3; IC50 where % efficacy is negative; read-out: Fluorimetry EC50/IC50
pEC50: −log10 of the molar value.
Tick Met if pEC50 is 7 or greater. Tick Not met if pEC50 is less than 7.

Exam item: Quick check, pEC50 >= 7? CCSc1nc(N2CCOCC2)cc(C)c1C(=O)NCCCC1CCCC1 [Example 105]
Marked response: Not met

Exam item: Quick check, pEC50 >= 7? CCSc1nc(N2CCOCC2)cc(C)c1C(=O)NCc1ccc(OC)cc1 [Example 137]
Marked response: Not met

----------
Target: KCNQ2/3 channels (Homo sapiens, UniProt O43525+O43526)
Construct: expressed in transfected cells
Test: Fluorescence assay using a voltage sensitive dye (fluorimetry)
Format: cell-based
Settings: CHO-K1, plateau effect relative to saturated retigabine (50 μM) = 100%; CHO-K1 cells expressing KCNQ2/3; negative values = antagonistic; read-out: Fluorimetry % efficacy (retigabine = 100%)
measurement-label: Emax
Returns: string containing the numeric result and its unit.

[
  {
    "molecule": "Cc1cc(N2CCOCC2)nc(C2CC2)c1C(=O)NCc1ccc(C(F)(F)F)cc1",
    "result": "124%"
  }
]

Exam item: State its Emax: "CCOc1nc(N2CCOCC2)cc(C)c1C(=O)NCc1ccc(F)cc1"
Marked response: 137%

Exam item: State its Emax: "Cc1cc(N2CCOC[C@H]2C)nc(C2CC2)c1C(=O)NCCCC(C)(C)C"
Marked response: 246%

Exam item: State its Emax: "COc1nc(N2CCOCC2)cc(C)c1C(=O)NCc1ccc(C(F)(F)F)cc1"
Marked response: 128%

----------
Consider the following compounds and their measured EC50 readings.
Molecular target: KCNQ2/3 channels (Homo sapiens, UniProt O43525+O43526)
Construct: expressed in transfected cells
Test: Fluorescence assay using a voltage sensitive dye (fluorimetry)
Type: cell-based
Conditions: CHO-K1 cells expressing KCNQ2/3; IC50 where % efficacy is negative; read-out: Fluorimetry EC50/IC50
# output: bare number, implied unit nM

Here's what some known entries look like.
[
  {
    "smiles-string": "COc1nc(N2CCOCC2)cc(C)c1C(=O)NCc1ccc(F)c(F)c1",
    "measurement-label": "EC50",
    "readout-number": 311
  },
  {
    "smiles-string": "CCc1nc(N2CCOCC2)cc(C)c1C(=O)NCc1cccc(F)c1",
    "measurement-label": "EC50",
    "readout-number": 790
  },
  {
    "smiles-string": "CCSc1nc(N2CCOCC2)cc(C)c1C(=O)NCCCc1ccncc1",
    "measurement-label": "EC50",
    "readout-number": 7970
  },
  {
    "smiles-string": "Cc1cc(N2CCOCC2)nc(C2CC2)c1C(=O)NCc1ccc(F)cc1",
    "measurement-label": "EC50",
    "readout-number": 148
  }
]

Exam item: State its EC50: "CCSc1nc(N(C)Cc2ccc(C(F)(F)F)cc2)cc(C)c1C(=O)NCc1cccc(F)c1"
Marked response: 177

----------
Target: KCNQ2/3 channels (Homo sapiens, UniProt O43525+O43526)
Construct: expressed in transfected cells
Assay: Fluorescence assay using a voltage sensitive dye (fluorimetry)
Assay type: cell-based
Conditions: CHO-K1, plateau effect relative to saturated retigabine (50 μM) = 100%; CHO-K1 cells expressing KCNQ2/3; negative values = antagonistic; read-out: Fluorimetry % efficacy (retigabine = 100%)
Tick Y if Emax is 200% or greater. Tick N if Emax is less than 200%.

[
  {
    "smiles-string": "CCSc1nc(N(C)C(=O)c2ccc(F)cc2)cc(C)c1C(=O)NCc1cccc(F)c1",
    "classification": "N"
  },
  {
    "smiles-string": "Cc1cc(N2CCOCC2)nc(C2CC2)c1C(=O)NCc1cc(F)cc(F)c1",
    "classification": "N"
  }
]

Exam item: Quick check, Emax >= 200%? "Cc1cc(N2CCOCC2)nc(C2CC2)c1C(=O)NCCCC(F)(F)F"
Marked response: N

Exam item: Quick check, Emax >= 200%? "Cc1cc(N2CCOCC2)nc(N(C)C)c1C(=O)NCc1ccc(F)c(F)c1"
Marked response: Y

Exam item: Quick check, Emax >= 200%? "CCOc1nc(N2CCCOCC2)cc(C)c1C(=O)NCc1cccc(F)c1"
Marked response: N

Exam item: Quick check, Emax >= 200%? "CCSc1nc(N(C)Cc2ccc(C(F)(F)F)cc2)cc(C)c1C(=O)NCc1cccc(F)c1"
Marked response: N

Exam item: Quick check, Emax >= 200%? "CCSc1nc(N2CCOCC2)cc(C)c1C(=O)NCCCC(C)C"
Marked response: Y

Exam item: Quick check, Emax >= 200%? "CCSc1nc(N2CCOCC2)cc(C)c1C(=O)NCc1ccc(OC)c(F)c1"
Marked response: N
